No end group written: not given here.
readout-name: α-helix + β-sheet proportion

Prompt: Could you share which α-helix + β-sheet proportion value was measured for VRLWVRVRRWRR-NH2 [VR-12] ?
Response: 31.5%
